Where do the numbers come from? From patent US20230035798A1.

tested system: T1, human LIGHT (TNFSF14), full length, membrane-bound (214E allele) (human, UniProt O43557 1-240)
T1 construct: also called membrane LIGHT; human membrane LIGHT
T1 sequence (O43557 whole entry K214E): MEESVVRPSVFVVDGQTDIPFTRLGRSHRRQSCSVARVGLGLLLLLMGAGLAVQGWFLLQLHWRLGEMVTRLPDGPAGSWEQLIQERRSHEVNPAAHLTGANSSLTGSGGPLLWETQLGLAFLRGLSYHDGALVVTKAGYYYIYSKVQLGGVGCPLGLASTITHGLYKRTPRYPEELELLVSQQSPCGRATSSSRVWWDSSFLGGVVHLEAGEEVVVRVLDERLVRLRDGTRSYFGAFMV
assay details: DcR3-His (1 nM) competition, EL4-LIGHT, flow cytometry; 33.3 nM
The following binders are listed with their measured DcR3-His binding, % of irrelevant mAb values.
property label: DcR3-His binding, % of irrelevant mAb (%)

binder	property label	endpoint value
3E09 (antibody, V domains shown, chimeric human IgG4 (S-to-P, L-to-E at 248), human CL; also called Parental 3E09) VH: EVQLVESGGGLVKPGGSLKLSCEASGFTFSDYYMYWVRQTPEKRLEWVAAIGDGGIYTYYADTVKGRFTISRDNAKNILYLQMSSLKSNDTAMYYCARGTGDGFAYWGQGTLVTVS VL: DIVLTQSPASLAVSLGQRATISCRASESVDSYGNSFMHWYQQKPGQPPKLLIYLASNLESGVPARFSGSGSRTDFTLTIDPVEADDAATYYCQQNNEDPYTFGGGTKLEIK	DcR3-His binding, % of irrelevant mAb	70.5
3D12 (antibody, human IgG4, V domains shown, chimeric: mouse variable domains on human IgG4 HC (S-to-P and L-to-E at 248) and human CL; also called Parental 3D12; 3D12 chimeric) VH: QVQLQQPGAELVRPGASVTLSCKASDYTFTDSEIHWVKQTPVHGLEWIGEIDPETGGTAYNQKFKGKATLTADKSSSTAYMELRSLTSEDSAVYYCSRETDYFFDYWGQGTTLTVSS VL: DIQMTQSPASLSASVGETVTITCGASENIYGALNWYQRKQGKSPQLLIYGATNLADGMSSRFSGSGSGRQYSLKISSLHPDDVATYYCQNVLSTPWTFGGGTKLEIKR	DcR3-His binding, % of irrelevant mAb	78.1
3A07 (antibody, human IgG4, V domains shown, chimeric human IgG4 (S-to-P, L-to-E at 248), human CL; also called Parental 3A07) VH: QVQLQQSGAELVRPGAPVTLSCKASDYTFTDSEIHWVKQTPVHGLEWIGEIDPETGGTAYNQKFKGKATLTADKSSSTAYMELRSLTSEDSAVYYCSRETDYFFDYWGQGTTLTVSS VL: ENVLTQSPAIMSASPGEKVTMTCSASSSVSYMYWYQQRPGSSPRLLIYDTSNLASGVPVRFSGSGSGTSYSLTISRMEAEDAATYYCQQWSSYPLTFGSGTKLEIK	DcR3-His binding, % of irrelevant mAb	67.5
